Data origin: the supplement of paper PMC11061612

combination Emax for assorted compounds
test system: OCUB-M (Breast Carcinoma); assay: combination Emax (second highest fraction inhibited in the dose matrix, 72 h); higher = more inhibition; extreme values may be limits of the assay
Would you mind answering with just the numeric figure?

compound	study_target	combination Emax
N#Cc1cnc(Nc2cc(NC[C@H]3CNCCO3)c(C(F)(F)F)cn2)cn1 [SRA737] + Nc1ccn([C@@H]2O[C@H](CO)[C@@H](O)C2(F)F)c(=O)n1 [Gemcitabine] (first compound max 10 µM, 7x7, partner max 0.3 µM)	OCUB-M (Breast Carcinoma)	0.951

# context switch: different compound, same combination Emax
Value of measured combination Emax for the entry NC1(C(=O)N[C@@H](CCO)c2ccc(Cl)cc2)CCN(c2ncnc3[nH]ccc23)CC1 [Capivasertib] + CCN(CCO)CCCOc1ccc2c(Nc3cc(CC(=O)Nc4cccc(F)c4)[nH]n3)ncnc2c1 [AZD2811] (first compound max 10 µM, 7x7, partner max 1 µM) : 1

----------
tested on: BT-20 (Breast Carcinoma); experiment: combination Emax (second highest fraction inhibited in the dose matrix, 72 h); higher = more inhibition; extreme values may be limits of the assay
assay_metric: combination Emax
Would you mind answering with just the numeric figure?

molecule	study_target	combination Emax
CN(CCO)CC[C@H](CSc1ccccc1)Nc1ccc(S(=O)(=O)NC(=O)c2ccc(N3CCC([C@@H](O)c4ccccc4-c4ccc(Cl)cc4)CC3)cc2)cc1S(=O)(=O)C(F)(F)F [AZD4320] + C1CN(CCC1(C(=O)N[C@@H](CCO)C2=CC=C(C=C2)Cl)N)C3=NC=NC4=C3C=CN4 [Capivasertib] (first compound max 1 µM, 7x7, partner max 3 µM)	BT-20 (Breast Carcinoma)	0.84

# context switch: different molecule, same combination Emax
Value of measured combination Emax for the entry COc1nnc2ccc(N3CCC(c4ccc(OCCN5CCN(C)C(=O)[C@H]5C)cc4)CC3)nn12 [AZD5153] + CN(CC[C@H](CSC1=CC=CC=C1)NC2=C(C=C(C=C2)S(=O)(=O)NC(=O)C3=CC=C(C=C3)N4CCC(CC4)[C@H](C5=CC=CC=C5C6=CC=C(C=C6)Cl)O)S(=O)(=O)C(F)(F)F)CCO [AZD4320] (first compound max 1 µM, 7x7, partner max 1 µM) : 0.293

----------
test system: EW-18 (Ewing's Sarcoma); test: Bliss excess, mean over the matrix (fraction); higher = more synergy;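 also: after 72 h of two-drug dosing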
Bliss excess for assorted molecules
Would you mind answering with just the numeric figure?

# count of solved cases: 2
molecule	numeric_readout
Cc1c2c(nn1C)CSCc1cc(n(C)n1)CSc1cc(c3ccccc3c1)OCCCc1c(C(=O)O)n(C)c3c-2c(Cl)ccc13 [AZD5991] + CN(C)CCCOc1ccc(-c2ccc3ncc4c(c3c2)n(C2CCOCC2)c(=O)n4C)cn1 [AZD0156] (first compound max 1 µM, 7x7, partner max 1 µM)	-0.0213
CC1(C)CCC(CN2CCN(c3ccc(C(=O)NS(=O)(=O)c4ccc(NCC5CCOCC5)c([N+](=O)[O-])c4)c(Oc4cnc5[nH]ccc5c4)c3)CC2)=C(c2ccc(Cl)cc2)C1 [Venetoclax] + Cc1cc2ncnn2cc1Nc1ncc2c(n1)n(C1CCOCC1)c(=O)n2C [AZD7648] (first compound max 1 µM, 7x7, partner max 10 µM)	0.0188

# context switch: different molecule, same Bliss excess
Value of measured Bliss excess for the entry CC(=O)c1c(C)c2cnc(Nc3ccc(N4CCNCC4)cn3)nc2n(C2CCCC2)c1=O [Palbociclib] + Cc1c2c(nn1C)CSCc1cc(n(C)n1)CSc1cc(c3ccccc3c1)OCCCc1c(C(=O)O)n(C)c3c-2c(Cl)ccc13 [AZD5991] (first compound max 10 µM, 7x7, partner max 1 µM) : -0.0135
